experimentSummary: CaCo2 Transwell transport (Papp, efflux ratio)
Format: in vitro ADME, human
conditionLabel: human, Caco-2, 20 µM; read-out: Efflux Ratio (Papp B–A / Papp A–B)
Catalogue of compounds with associated efflux ratio at 180 min, 20 µM
// keep it numeric: no unit symbol after the value

>>> assayvalue("CCN(CC)CCNC(=O)c1c(C)[nH]c(/C=C2\\C(=O)Nc3ccc(F)cc32)c1C [Sunitinib, sunitinib]")
1.6

Now consider the entry below.
Inquiry: // query efflux ratio at 180 min, 20 µM value for entry CNC(=O)c1cc(Oc2ccc(NC(=O)Nc3ccc(Cl)c(C(F)(F)F)c3)cc2)ccn1 [Sorafenib, sorafenib]
Reply text: 0.86
